- Target Or Test System: Endothelin receptor type B (Homo sapiens, UniProt P24530)
- Sequence (P24530 whole entry): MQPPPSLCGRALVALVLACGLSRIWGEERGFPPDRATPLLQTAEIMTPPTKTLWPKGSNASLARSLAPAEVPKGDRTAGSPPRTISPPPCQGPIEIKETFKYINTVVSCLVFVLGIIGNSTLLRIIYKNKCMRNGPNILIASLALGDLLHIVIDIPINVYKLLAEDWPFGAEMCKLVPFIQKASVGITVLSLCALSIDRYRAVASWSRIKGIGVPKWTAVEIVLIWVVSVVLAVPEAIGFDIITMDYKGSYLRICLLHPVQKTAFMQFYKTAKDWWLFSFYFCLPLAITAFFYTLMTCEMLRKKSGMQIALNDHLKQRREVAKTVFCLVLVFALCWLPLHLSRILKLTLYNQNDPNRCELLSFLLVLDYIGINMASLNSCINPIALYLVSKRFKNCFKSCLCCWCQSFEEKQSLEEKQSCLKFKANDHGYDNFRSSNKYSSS
- Protocol Summary: Ability to inhibit specific binding of [125I]- -ET-1 to human GH cells which express endothelin B receptor
Reported Metric: IC50

// IC50 lookup, key: `Cc1ccc(-c2c(NS(=O)(=O)c3ccc(C(C)(C)C)cc3)ncnc2OCCOc2ncc(CO)cn2)cc1`
31 nM

* * *

- Target Or Test System: UniProtKB P25101
- Sequence (P25101 whole entry): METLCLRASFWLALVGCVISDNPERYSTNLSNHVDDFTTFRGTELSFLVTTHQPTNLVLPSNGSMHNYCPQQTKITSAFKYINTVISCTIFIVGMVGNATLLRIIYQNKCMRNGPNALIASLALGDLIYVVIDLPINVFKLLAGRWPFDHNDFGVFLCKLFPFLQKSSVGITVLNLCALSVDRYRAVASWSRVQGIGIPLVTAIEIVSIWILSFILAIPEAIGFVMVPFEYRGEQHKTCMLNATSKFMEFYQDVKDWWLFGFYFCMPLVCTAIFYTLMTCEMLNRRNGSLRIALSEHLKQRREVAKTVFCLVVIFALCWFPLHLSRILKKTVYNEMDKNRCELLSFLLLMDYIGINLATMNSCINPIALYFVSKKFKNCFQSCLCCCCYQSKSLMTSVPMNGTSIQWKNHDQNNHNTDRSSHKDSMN
Reported Metric: pKi
# log scale: pKi equals minus log10 of the concentration in mol/L

# lookup: pKi of `Cc1ccc(-c2c(NS(=O)(=O)c3ccc(C(C)(C)C)cc3)ncnc2OCCOc2ncc(Br)cn2)cc1`
11.38

* * *

- Protocol Summary: Ability to inhibit specific binding of [125I]- -ET-1 to rat A 10 cells which express endothelin A receptor
Reported Metric: pIC50
Friendly reminder that pIC50 comes from taking -log10 of the concentration in mol/L.

What value of measured pIC50 is listed for `Cc1ccc(-c2c(NS(=O)(=O)c3ccc(C(C)(C)C)cc3)ncnc2OCCOc2ncc(Br)cn2)cc1` ?
10.41

* * *

- Target Or Test System: Endothelin-1 receptor (Sus scrofa, UniProt Q29010)
- Sequence (Q29010 whole entry): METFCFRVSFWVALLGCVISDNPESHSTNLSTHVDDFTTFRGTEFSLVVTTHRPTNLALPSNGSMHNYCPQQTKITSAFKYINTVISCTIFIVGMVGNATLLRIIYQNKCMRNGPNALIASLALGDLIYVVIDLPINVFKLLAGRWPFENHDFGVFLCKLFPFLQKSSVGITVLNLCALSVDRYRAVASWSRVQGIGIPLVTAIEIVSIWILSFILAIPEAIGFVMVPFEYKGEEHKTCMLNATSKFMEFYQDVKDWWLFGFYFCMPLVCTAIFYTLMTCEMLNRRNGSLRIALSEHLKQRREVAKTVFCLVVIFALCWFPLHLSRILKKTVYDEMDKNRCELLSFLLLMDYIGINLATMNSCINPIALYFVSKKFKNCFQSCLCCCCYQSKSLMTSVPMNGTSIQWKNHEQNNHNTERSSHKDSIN
- Protocol Summary: Ability to inhibit [125I]ET1 binding to endothelin A receptor in porcine aortic membrane
Overview of reported pIC50 across a group of molecules:
Would you please state pIC50, meaning minus log10 of the concentration in mol/L, as a bare number?

Examples with answers:
# Smiles Record, pIC50
rows = [
    ("CC(C)(C)c1ccc(S(=O)(=O)Nc2ncnc(OCCOc3ncc(Br)cn3)c2-c2ccc(CO)cc2)cc1", 10.40),
    ("CSc1cnc(OCCOc2ncnc(NS(=O)(=O)c3ccc(C(C)(C)C)cc3)c2-c2ccc(CO)cc2)nc1", 10.40),
]

Note: attention shifts to another entry.
What pIC50 value was documented for this molecule, `Cc1ccc(-c2c(NS(=O)(=O)c3ccc(C(C)(C)C(=O)O)cc3)ncnc2OCCOc2ncc(Br)cn2)cc1` ?
8.85

* * *

- Target Or Test System: Endothelin-1 receptor (Sus scrofa)
- Protocol Summary: Ability to inhibit [125I]ET1 binding to endothelin A receptor in porcine aortic membrane
pIC50: −log10 of the molar value.
Listed here: items and their measured pIC50.

# Smiles Record, Result Value
data = [
    ("Cc1ccc(-c2c(NS(=O)(=O)c3ccc(C(C)(C)C)cc3)ncnc2OCCOc2ncc(Br)cn2)cc1", "> 12.00"),
    ("Cc1ccc(-c2c(NS(=O)(=O)c3ccc(C(C)(C)C)cc3)ncnc2OCCOc2ncc(C(=O)O)cn2)cc1", "< 8.00"),
    ("CSc1cnc(OCCOc2ncnc(NS(=O)(=O)c3ccc(C(C)(C)C)cc3)c2-c2ccc(C)cc2)nc1", "> 12.00"),
]

Then there is this compound:
What value of measured pIC50 is listed for `CSc1cnc(OCCOc2ncnc(NS(=O)(=O)c3ccc(C(C)(C)C)cc3)c2-c2ccc(C(=O)O)cc2)nc1` ?
< 8.00
